Biological target: F508delCFTR (Homo sapiens, UniProt P13569, DEL508-508)
Construct: expressed in transfected cells; host or cells: CFBE41o- human lung-derived epithelial cells (CFBE4lo-F508delCFTR-HRP), doxycycline-inducible
Sequence (P13569 with tags, fused parts or gaps DEL508-508): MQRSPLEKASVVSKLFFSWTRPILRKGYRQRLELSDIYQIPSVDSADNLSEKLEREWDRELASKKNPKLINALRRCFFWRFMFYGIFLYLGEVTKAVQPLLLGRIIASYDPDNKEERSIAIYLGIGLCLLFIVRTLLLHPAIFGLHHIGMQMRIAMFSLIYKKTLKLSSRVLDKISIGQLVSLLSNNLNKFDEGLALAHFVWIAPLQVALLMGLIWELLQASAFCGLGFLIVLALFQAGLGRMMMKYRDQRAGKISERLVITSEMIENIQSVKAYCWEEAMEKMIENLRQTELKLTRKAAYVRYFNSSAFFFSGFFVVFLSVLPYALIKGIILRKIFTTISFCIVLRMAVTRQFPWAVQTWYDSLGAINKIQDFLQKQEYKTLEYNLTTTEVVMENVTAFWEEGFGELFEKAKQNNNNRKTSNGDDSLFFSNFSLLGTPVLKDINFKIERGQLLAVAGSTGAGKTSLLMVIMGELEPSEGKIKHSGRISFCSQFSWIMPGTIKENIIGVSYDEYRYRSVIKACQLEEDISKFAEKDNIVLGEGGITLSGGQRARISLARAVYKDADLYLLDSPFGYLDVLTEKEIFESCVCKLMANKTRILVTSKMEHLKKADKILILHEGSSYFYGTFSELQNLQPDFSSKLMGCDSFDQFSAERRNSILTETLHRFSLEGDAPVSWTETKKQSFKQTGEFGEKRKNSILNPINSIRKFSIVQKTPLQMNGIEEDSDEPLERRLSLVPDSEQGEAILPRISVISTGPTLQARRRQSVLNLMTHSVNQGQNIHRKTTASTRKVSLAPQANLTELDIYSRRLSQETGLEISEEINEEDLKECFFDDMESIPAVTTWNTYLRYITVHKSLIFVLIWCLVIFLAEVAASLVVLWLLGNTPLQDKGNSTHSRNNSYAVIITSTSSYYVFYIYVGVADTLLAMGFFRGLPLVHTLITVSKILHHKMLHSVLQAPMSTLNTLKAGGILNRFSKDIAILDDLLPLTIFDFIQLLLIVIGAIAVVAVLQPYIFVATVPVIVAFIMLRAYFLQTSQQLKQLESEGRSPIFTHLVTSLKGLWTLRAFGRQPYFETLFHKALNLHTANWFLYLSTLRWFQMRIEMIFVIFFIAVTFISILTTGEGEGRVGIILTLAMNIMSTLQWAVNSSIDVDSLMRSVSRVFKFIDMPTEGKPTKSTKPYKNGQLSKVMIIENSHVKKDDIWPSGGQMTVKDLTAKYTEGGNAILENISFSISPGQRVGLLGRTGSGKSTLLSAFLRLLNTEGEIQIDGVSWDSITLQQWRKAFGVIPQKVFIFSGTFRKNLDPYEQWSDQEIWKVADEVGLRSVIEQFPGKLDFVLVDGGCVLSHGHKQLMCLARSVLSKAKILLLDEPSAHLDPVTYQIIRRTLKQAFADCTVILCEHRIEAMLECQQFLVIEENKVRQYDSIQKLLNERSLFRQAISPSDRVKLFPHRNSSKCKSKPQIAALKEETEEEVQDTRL
Test: Cell Surface Expression-Horse Radish Peroxidase (CSE-HRP) Assay;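 further: percent of the 2 µM on-plate positive control corrector response above DMSO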
Assay type: cell-based
Details: CSE-HRP; without co-corrector; maximum at any tested concentration, normalized to on-plate positive control; read-out: Maximum % activity (without co-corrector)
metric_name: Emax

Below: 2 molecules and their reported Emax.
{"columns": ["molecule", "target_of_assay", "measured_result"],
 "data": [
  ["CC(C)c1ccccc1[C@H]1[C@@H](NCc2cccc3c2OC(C)(C)C3)[C@H](C(C)(C)C)[C@@H](C(=O)O)N1C(=O)[C@@H]1CCCCO1", "F508delCFTR (Homo sapiens, UniProt P13569, DEL508-508)", "> 200%"],
  ["COc1ccc(C(C)(C)C)cc1CN[C@H]1[C@H](C(C)(C)C)[C@@H](C(=O)O)N(C(=O)CN2CCCC2)[C@H]1c1ccccc1", "F508delCFTR (Homo sapiens, UniProt P13569, DEL508-508)", "< 100%"]
]}

## Task Given the entry COc1cc(C(C)(C)C)ccc1CN[C@H]1[C@H](C(C)(C)C)[C@@H](C(=O)O)N(C(=O)C2CCCCC2)[C@H]1c1ccccc1OC(F)F , report its measured Emax.
## Result 100 to 200%

## Task Given the entry COc1ccc(C(C)(C)C)cc1CN[C@H]1[C@H](C(C)(C)C)[C@@H](C(=O)O)N(C(=O)Cc2ncc(Cl)cc2F)[C@H]1c1ccccc1 , report its measured Emax.
## Result > 200%

## Task Given the entry COc1ccc(C(C)(C)C)cc1CN[C@H]1[C@H](C(C)(C)C)[C@@H](C(=O)O)N(C(=O)C(OC)C(C)C)[C@H]1c1ccccc1 (stereo partly shown) , report its measured Emax.
## Result > 200%

## Task Given the entry COc1ncc(C(F)(F)F)cc1CN[C@H]1[C@H](C(C)(C)C)[C@@H](C(=O)O)N(C(=O)[C@@H]2CCCCO2)[C@H]1c1ccccc1Br , report its measured Emax.
## Result 100 to 200%

## Task Given the entry Cc1cc(C)cc(CN[C@H]2[C@H](C(C)(C)C)[C@@H](C(=O)O)N(C(=O)C3CCCCC3)[C@H]2c2ccccc2)c1 , report its measured Emax.
## Result < 100%

## Task Given the entry COc1ccc(C(C)(C)C)cc1CN[C@H]1[C@H](C(C)(C)C)[C@@H](C(=O)O)N(C(=O)C2OCCc3ccccc32)[C@H]1c1ccccc1 (stereo partly shown) , report its measured Emax.
## Result > 200%
